system: E. coli TESEC Mtb Asd; assay: growth (OD600 after 10 h); higher = more growth (less inhibition); details: arabinose induction (level): Low; compound 0.1 mM; raw OD600 reference: median of DMSO wells 0.417, cell-free background 0.041
For each of the molecules below, state its growth.
I only need the number, thanks.

Record Cc1cc(/C=C/c2ccc3cc(N(C)C)ccc3[n+]2C)c(C)n1-c1ccccc1 [Pyrvinium pamoate] , field growth: 0.0642

Looking up COc1ccc2c(c1)c(CC(=O)O)c(C)n2C(=O)c1ccc(Cl)cc1 , I see its growth listed as 0.196

For CO[C@H]1/C=C/O[C@@]2(C)Oc3c(C)c(O)c4c(O)c(c(/C=N/N5CCN(C6CCCC6)CC5)c(O)c4c3C2=O)NC(=O)/C(C)=C\C=C\[C@H](C)[C@H](O)[C@@H](C)[C@@H](O)[C@@H](C)[C@H](OC(C)=O)[C@@H]1C the molecule record lists growth as 0.0547

Record O=S(=O)(O)CCS . Reported growth: 0.371

---

For each of the compounds below, state its growth.
system: E. coli TESEC Mtb Alr; test: growth (OD600 after 10 h); higher = more growth (less inhibition); conditions: arabinose 1000000 nM; compound 0.1 mM; raw OD600 reference: median of DMSO wells 0.193, cell-free background 0.041
Counter-ions that a name gives are not always drawn.
Please reply with the number alone, leaving off any unit.

Simply: CC(O)(P(=O)(O)O)P(=O)(O)O [Etidronic acid, disodium salt] , E. coli TESEC Mtb Alr, growth = 0.184

Given the compound CC(=O)N(CC(C)C(=O)O)c1c(I)cc(I)c(N)c1I (configuration not stated) [Iocetamic acid] and test system E. coli TESEC Mtb Alr, the measured growth is 0.265

Form field, growth with E. coli TESEC Mtb Alr, item c1ccc(-c2ccc(C(c3ccccc3)n3ccnc3)cc2)cc1 (configuration not stated) [Bifonazole] : 0.0499

Item OC(Cn1cncn1)(Cn1cncn1)c1ccc(F)cc1F [Fluconazole] ; assay system E. coli TESEC Mtb Alr; growth reported as 0.211

Recorded growth for O=P(O)(O)C(O)(Cc1cccnc1)P(=O)(O)O [Risedronic acid monohydrate] on E. coli TESEC Mtb Alr was 0.196

Record N=C(N)NS(=O)(=O)c1ccc(N)cc1 [Sulfaguanidine] ; system E. coli TESEC Mtb Alr; growth = 0.173

Response field growth (E. coli TESEC Mtb Alr) for item CC(C)NCC(O)COc1ccc(COCCOC(C)C)cc1 (configuration not stated) [Bisoprolol fumarate] : 0.192

Form: item CCC(C)n1ncn(-c2ccc(N3CCN(c4ccc(OCC5COC(Cn6cncn6)(c6ccc(Cl)cc6Cl)O5)cc4)CC3)cc2)c1=O (configuration not stated) [Itraconazole] ; test system E. coli TESEC Mtb Alr; growth: 0.171

Response field growth (E. coli TESEC Mtb Alr) for item C=C1c2c(Cl)ccc(O)c2C(O)=C2C(=O)[C@]3(O)C(O)=C(C(N)=O)C(=O)[C@@H](N(C)C)[C@@H]3[C@@H](O)[C@H]12.O=C(O)c1cc(S(=O)(=O)O)ccc1O [Meclocycline sulfosalicylate] : 0.0445

growth value, target or system E. coli TESEC Mtb Alr, for NS(=O)(=O)c1cc2c(cc1Cl)N=CNS2(=O)=O [Chlorothiazide] : 0.183

E. coli TESEC Mtb Alr data for CCn1nc(C(=O)O)c(=O)c2cc3c(cc21)OCO3 [Cinoxacin] ; its growth: 0.108

Form: item CN1CCCN(C(c2ccccc2)c2ccc(Cl)cc2)CC1 (configuration not stated) [Homochlorcyclizine dihydrochloride] ; test system E. coli TESEC Mtb Alr; growth: 0.0532

The compound O=C(NCC(O)CO)c1c(I)c(C(=O)NCC(O)CO)c(I)c(N(CCO)C(=O)CO)c1I (configuration not stated) [Ioversol] on E. coli TESEC Mtb Alr: growth was 0.192

With E. coli TESEC Mtb Alr as the test system, Nc1nc2[nH]cc(CCc3ccc(C(=O)N[C@@H](CCC(=O)O)C(=O)O)cc3)c2c(=O)[nH]1 [Pemetrexed disodium] showed growth of 0.184

Item C#C[C@]1(O)CC[C@H]2[C@@H]3[C@H](C)CC4=C(CCC(=O)C4)[C@H]3CC[C@@]21C [Tibolone] ; assay system E. coli TESEC Mtb Alr; growth reported as 0.0695

Form: item O=C(NCCN1CCOCC1)c1ccc(Cl)cc1 [Moclobemide] ; test system E. coli TESEC Mtb Alr; growth: 0.177

The measured growth that O=C(CCCCC(=O)Nc1c(I)cc(I)c(C(=O)O)c1I)Nc1c(I)cc(I)c(C(=O)O)c1I [Iodipamide] showed for E. coli TESEC Mtb Alr is 0.17

Where do these numbers come from? They come from the supplement of paper PMC9262897.
